tested on: CHRF288-11; design: species or system AML cell lines (8); Primary HTS, single concentration about 10 uM, Cell Titer Glo viability; log10 luminescence, per cent inhibition relative to cycloheximide control; conditions: 72 h, relative to cycloheximide control, log10 luminescence; inhibitor
Catalogue of CHRF288-11 %inh values
Please respond with the number in % and leave the unit unwritten.

A selection of reference data follows.
O=C1NC(O)C(c2c[nH]c3ccccc23)=C1c1c[nH]c2ccccc12 (centres unmarked) [SJ000581000-1]: 3.04
O=C1Nc2ccc(I)cc2C1=Cc1cc(Br)c(O)c(Br)c1 [SJ000287883-4]: 7.111
Nc1c(C(=O)c2cccc(C(O)(CO)CO)c2)cnn1-c1ccc(F)cc1 [SJ000581150-1]: -1.927
CS(=O)(=O)CCc1cccc(C(=O)c2cnn(-c3ccc(F)cc3)c2N)c1 [SJ000581118-1]: -6.13

Which measured CHRF288-11 %inh belongs to COc1ccc(F)cc1C(=O)c1cnc(NC2CCN(S(C)(=O)=O)CC2)nc1N [SJ000581021-1] , tested on CHRF288-11?
14.05

Which measured CHRF288-11 %inh belongs to O=C1NC(=NCCc2cccs2)S/C1=C\c1ccc2ncccc2c1 [SJ000581015-1] , tested on CHRF288-11?
-3.354

Which measured CHRF288-11 %inh belongs to c1cnn2ncc(-c3ccnc(Nc4ccc5c(c4)OCCO5)n3)c2c1 [SJ000573318-1, U18020/87/1] , tested on CHRF288-11?
71.61

Which measured CHRF288-11 %inh belongs to COCC1=C(C(=O)O)N2C(=O)[C@@H](NC(=O)/C(=N\OC)c3csc(N)n3)[C@H]2SC1 [SJ000312312-2] , tested on CHRF288-11?
0.005285

* * *

Catalogue of EC50 values
tested on: M07e; test: Secondary dose-response HTS, Cell Titer Glo; assay type: cell-based, human; details: Homo sapiens, M-07e; secondary high-throughput screen; M07e; read-out: average effective concentration, M07e
Please respond with the number in µM and leave the unit unwritten.

A selection of reference data follows.
CS(=O)(=O)c1ccc(-c2cnc(N)c(C(=O)Nc3ccccc3)n2)cc1: 6.7
C=C1C(=O)O[C@H]2[C@H]1CC/C(C)=C/CC[C@@]1(C)O[C@@H]21 [PARTHENOLIDE]: 10

Turning to the following compound.
Endpoint output: EC50 of O=c1[nH]c(=O)n([C@H]2C[C@H](O)[C@@H](CO)O2)cc1F . Value?
8.2

* * *

tested on: MOLM-13; test: Secondary dose-response HTS, Cell Titer Glo; format: cell-based, human; conditions: secondary high-throughput screen; MOLM-13; read-out: average effective concentration, MOLM-13
assay.endpoint: pEC50
Recall that pEC50 is obtained by taking minus log10 of the concentration measured in molar.

Endpoint output: pEC50 of CC(C)(CCc1ccccc1)C(=O)Nc1ccc(C(=O)NO)cc1 . Value?
5.89

Endpoint output: pEC50 of O=C([O-])Cc1ccccc1.[Na+] [SODIUM PHENYLACETATE] . Value?
5.68

Endpoint output: pEC50 of CCCCCCCCCCCCCCCc1cccc(OCC)c1C(=O)Nc1ccc(Cl)c(C(F)(F)F)c1 . Value?
6.05

Endpoint output: pEC50 of C=C1C(=O)O[C@@H]2C[C@@]3(C)CCCC(=C)[C@@H]3C[C@H]12 . Value?
5.23

* * *

system: ML2; assay: Secondary dose-response HTS, Cell Titer Glo; format: cell-based, human; details: Homo sapiens; secondary high-throughput screen; ML-2; read-out: average effective concentration, ML-2
assay.endpoint: EC50 (µM)
Please respond with the number in µM and leave the unit unwritten.

COCc1c(C(C)C)nc(C(C)C)c(/C=C/[C@@H](O)C[C@@H](O)CC(=O)O)c1-c1ccc(F)cc1: 1.6
Nc1ccn([C@@H]2O[C@H](CO)[C@@H](O)[C@@H]2O)c(=O)n1: 0.1
O=C(CCCCCN1C(=O)c2cccc3cccc(c23)C1=O)NO: 4.1
CC[C@@]1(O)C(=O)OCc2c1cc1n(c2=O)Cc2cc3c(CN(C)C)c(O)ccc3nc2-1: 0.25
O=C(/C=C/c1ccc(CN(CCO)CCc2c[nH]c3ccccc23)cc1)NO: 0.001
Nc1ccccc1NC(=O)c1ccc(CNC(=O)OCc2cccnc2)cc1: 6.2
CN1C(=O)[C@@]23C[C@]4([C@]56C[C@@]78SS[C@@](CO)(C(=O)N7[C@H]5Nc5ccccc56)N(C)C8=O)c5ccccc5N[C@@H]4N2C(=O)[C@]1(CO)SS3: 0.026
COc1ncc(-c2ccc3nccc(-c4ccnnc4)c3c2)cc1NS(=O)(=O)c1ccc(F)cc1F: 0.001

Endpoint output: EC50 of Cc1c(-c2cnccn2)ssc1=S . Value?
3.1

Endpoint output: EC50 of CCN(CC)Cc1ccc2cc(COC(=O)Nc3ccc(C(=O)NO)cc3)ccc2c1 . Value?
0.07

Endpoint output: EC50 of CNC(=O)c1nn(C)c2c1C(C)(C)Cc1cnc(Nc3ccc(N4CCN(C)CC4)cc3)nc1-2 . Value?
5.6

Endpoint output: EC50 of Nc1cc(F)ccc1NC(=O)c1ccc(CNC(=O)/C=C/c2cccnc2)cc1 [CHIDAMIDE] . Value?
8.7

Endpoint output: EC50 of C=C1C(=O)O[C@H]2[C@H]1CC/C(C)=C/CC[C@@]1(C)O[C@@H]21 [PARTHENOLIDE] . Value?
0.92

* * *

system: ML2; assay: Secondary dose-response HTS, Cell Titer Glo; type: cell-based, human; conditions: Homo sapiens, ML-2, read-out: average effective concentration, ML-2
assay.endpoint: EC50
# include the unit after the value

Endpoint output: EC50 of Cn1cc(-c2cnn3c(N)c(Br)c([C@@H]4CCCNC4)nc23)cn1 [SCH-900776] . Value?
53 nM

* * *

test system: ML-2; parameters: species or system AML cell lines (8); Primary HTS, single concentration about 10 uM, Cell Titer Glo viability; log10 luminescence, per cent inhibition relative to cycloheximide control; conditions: 72 h, relative to cycloheximide control, log10 luminescence; inhibitor
Catalogue of ML-2 %inh values
Please respond with the number in % and leave the unit unwritten.

A selection of reference data follows.
CS(=O)(=O)Nc1cccc(-c2ccc3c(NC(=O)C4CC4)n[nH]c3c2)c1: 56.77
Cn1cc(C2=C(c3cn(C)c4cc(Cl)ccc34)C(=O)NC2=O)c2ccccc21: 61.36
O=C1NC(=NCCc2ccccn2)S/C1=C\c1ccc2ncccc2c1: 2.217

Endpoint output: ML-2 %inh of CS(=O)(=O)CCNCc1nc(-c2ccc3ncnc(Nc4ccc(F)c(Cl)c4)c3c2)cs1 . Value?
0.9399

* * *

system: MV4-11; design: species or system AML cell lines (8); Primary HTS, single concentration about 10 uM, Cell Titer Glo viability; log10 luminescence, per cent inhibition relative to cycloheximide control; details: 72 h, relative to cycloheximide control, log10 luminescence; inhibitor
assay.endpoint: MV4-11 %inh (%)
Please respond with the number in % and leave the unit unwritten.

O=C(Nc1n[nH]c2nc(-c3ccc(O)cc3)c(Br)cc12)C1CC1: 59.64
Cc1cc(Nc2cc(N3CCN(C)CC3)nc(Sc3ccc(NC(=O)C4CC4)cc3)n2)n[nH]1: 64.96
O=C1NC(=O)C(N2CCc3ccccc32)=C1c1ccc(Cl)cc1: 95.01

Turning to the following compound.
Which measured MV4-11 %inh belongs to O=C1NC(=NCc2ccccc2Br)S/C1=C\c1ccc2ncccc2c1 , tested on MV4-11?
3.118

* * *

Catalogue of pEC50 values
system: U937; test: cells; parameters: species or system AML cell lines (8); Secondary HTS, 10-point dose-response in triplicate, Cell Titer Glo viability, four-parameter fit EC50; details: Homo sapiens, U-937, 72 h, read-out: U937
pEC50: −log10 of the molar value.

A selection of reference data follows.
COc1ccc(Cl)c(Nc2nc3ccccc3nc2NS(=O)(=O)c2cccc(NC(=O)C(C)(C)N)c2)c1: < 5.00
Cc1nc(Nc2ncc(C(=O)Nc3c(C)cccc3Cl)s2)cc(N2CCN(CCO)CC2)n1: < 5.00

Endpoint output: pEC50 of C[C@]1(c2nc3c(C(N)=O)cccc3[nH]2)CCCN1 . Value?
< 5.00

Endpoint output: pEC50 of COc1ccc([C@@]23Oc4cc(OC)cc(OC)c4[C@]2(O)[C@H](O)[C@H](C(=O)N(C)C)[C@H]3c2ccccc2)cc1 [SJ000834151, ROCAGLAMIDE A] . Value?
7.28

Endpoint output: pEC50 of CC(C)(C#N)c1ccc(N2C(=O)OCc3cnc4ccc(-c5cnc6ccccc6c5)cc4c32)cc1 . Value?
< 5.00

* * *

tested on: MOLM-13; parameters: species or system AML cell lines (8); Primary HTS, single concentration about 10 uM, Cell Titer Glo viability; log10 luminescence, per cent inhibition relative to cycloheximide control; conditions: 72 h, relative to cycloheximide control, log10 luminescence; inhibitor
assay.endpoint: MOLM-13 %inh (%)
Please respond with the number in % and leave the unit unwritten.

Endpoint output: MOLM-13 %inh of O=C(O[C@H]1CN[C@H](C#Cc2cc3ncnc(Nc4ccc(Cc5ccccc5)cc4)c3s2)C1)N1CCOCC1 . Value?
61.51

Endpoint output: MOLM-13 %inh of COc1ccc2c(C3=C(c4cn(C)c5ccccc45)C(=O)NC3=O)cn(C)c2c1 . Value?
81.86

Endpoint output: MOLM-13 %inh of O=C1NC(=NCC(CO)c2ccccc2)S/C1=C\c1ccc2ncccc2c1 (centres unmarked) . Value?
2.415

Endpoint output: MOLM-13 %inh of Fc1ccc(Nc2nccc(-c3c(-c4ccc(C(F)(F)F)cc4)nn4ncccc34)n2)cc1F . Value?
-1.248

Endpoint output: MOLM-13 %inh of N#Cc1c(NC(=O)CN2CCOCC2)sc2c1CCCC2 . Value?
-0.7057

Endpoint output: MOLM-13 %inh of Cn1c(=O)c2c(ncn2C)n(C)c1=O . Value?
-2.617

Endpoint output: MOLM-13 %inh of Oc1ncnc2[nH]ncc12 . Value?
-2.79

Endpoint output: MOLM-13 %inh of COc1cc(N2CCN(C(C)C)CC2)ccc1Nc1nc(Nc2ccc(F)cc2C(=O)NC[C@@H](O)CO)c2cc[nH]c2n1 . Value?
61.15

Endpoint output: MOLM-13 %inh of COC(=O)Nc1nc2ccc(Sc3ccc(NC(=O)Nc4cc(C(F)(F)F)ccc4F)cc3)cc2[nH]1 . Value?
17.62

Endpoint output: MOLM-13 %inh of COc1ccc(-c2ccc3c(N4CCOC[C@@H]4C)nc(N4CCOC[C@@H]4C)nc3n2)cc1CO . Value?
34.83

Endpoint output: MOLM-13 %inh of O=C(O[C@H]1CN[C@H](C#Cc2cc3ncnc(Nc4ccc5c(ccn5Cc5cc(F)ccc5F)c4)c3s2)C1)N1CCOCC1 . Value?
10.52
